# MEASUREMENT_PROTOCOL: in vitro
# MEASUREMENT_CONTEXT: chicken, chorioallantoic membrane
Counter-ions that a name gives are not always drawn.
Exercise: state measured log10(CC50 at 48 h) for each of the compounds provided.
Log10 applied to CC50 at 48 h; unit prior to transform: mg/L.

Lookup: Give the value of log10(CC50 at 48 h) reported for the following: `CCOc1ccc(C(C)=NNC(=N)SC)cc1`
Found: 1.95

Lookup: Give the value of log10(CC50 at 48 h) reported for the following: `CSC(=N)NN=Cc1cc(Cl)cc(Cl)c1`
Found: 2.85

Lookup: Give the value of log10(CC50 at 48 h) reported for the following: `CSC(=N)NN=C(C)C=Cc1ccc(Cl)cc1`
Found: 2.85

Lookup: Give the value of log10(CC50 at 48 h) reported for the following: `CSC(=N)NN=C(C)c1cccc(Cl)c1`
Found: 2.85

Lookup: Give the value of log10(CC50 at 48 h) reported for the following: `COc1ccc(C(C)=NNC(=N)SC)cc1`
Found: 2.00

Lookup: Give the value of log10(CC50 at 48 h) reported for the following: NC12CC3CC(CC(C3)C1)C2 [Am, Adamantaneamine Hydrochloride, reference compound]
Found: 3.00

Lookup: Give the value of log10(CC50 at 48 h) reported for the following: CCCCSC(=N)NN=Cc1ccc(Cl)cc1Cl [Compound 9, Hydrochloride]
Found: 2.80

Lookup: Give the value of log10(CC50 at 48 h) reported for the following: `CSC(=N)NN=C(C)c1ccc(Cl)cc1Cl`
Found: 2.26

Lookup: Give the value of log10(CC50 at 48 h) reported for the following: `CSC(=N)NN=C(C)c1ccc(Cl)cc1`
Found: 2.55

Lookup: Give the value of log10(CC50 at 48 h) reported for the following: `CSC(=N)NN=C(C)c1ccc(C)cc1`
Found: 3.00

Lookup: Give the value of log10(CC50 at 48 h) reported for the following: `CSC(=N)NN=Cc1ccc(Cl)cc1Cl`
Found: 2.85

Lookup: Give the value of log10(CC50 at 48 h) reported for the following: `CSC(=N)NN=C(C)c1ccccc1`
Found: 2.20

Lookup: Give the value of log10(CC50 at 48 h) reported for the following: `CCCCCCCCCCOc1ccc(C(C)=NNC(=N)SC)cc1`
Found: 3.00

* * *

# MEASUREMENT_PROTOCOL: in vitro
# MEASUREMENT_CONTEXT: chicken, chorioallantoic membrane
Where a name gives a salt, the structure may show the parent alone.
QUANTITY_NAME: CC50 at 48 h (µg/mL)
Lab book: enter the figure in µg/mL, no units written.

Lookup: Give the value of CC50 at 48 h reported for the following: CSC(=N)NN=C(C)c1ccc(Cl)c(Cl)c1Cl [Compound 31]
Found: 354

Lookup: Give the value of CC50 at 48 h reported for the following: CCCC(=NNC(=NC)SC)c1ccc(Cl)cc1 [Compound 28]
Found: 794

Lookup: Give the value of CC50 at 48 h reported for the following: CSC(=N)NN=Cc1ccc(Cl)c(Cl)c1 [Compound 11, Hydrochloride]
Found: 707
